Reference for the values: the supplement of paper PMC6757056

B1: library; a variant is named by its letters at N, in order (parent)
chain: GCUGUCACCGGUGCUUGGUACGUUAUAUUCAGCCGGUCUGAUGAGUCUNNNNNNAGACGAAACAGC

# Variants of: B1
# Method summary: normalized RNA/DNA level with ligand (relative to sTRSVctl = 100) (log10 (% of sTRSVctl)); HEK293T overexpressing SLC46A1; ligand concentration (+) RNA-Seq: 6 mM; higher = less ribozyme self-cleavage, higher mRNA level
# Condition details: with (6R,S)-folinic acid; ligand present: yes
Form field: normalized RNA/DNA level with ligand (log10) (one value per entry).
Please give only the number in your answer, with no unit.

1. CCGCGA :: 2.06
2. CCGUUC :: 2.03
3. UUGCAU :: 2.01

Q. // query normalized RNA/DNA level with ligand (log10) value for entry `GGCACG`
A. 2.03

Q. Thanks! And `CCUGUA` ?
A. 2.04
